test system: L6; test: Cytotoxicity against rat L6 cells; format: cell-based; conditions: Rattus norvegicus, L6
Bucketed by reported IC50, buckets being group A (below 100 µM), group B (100 µM to below 200 µM), group C (200 µM or more)

O=C(Nc1ccccc1-c1nc2c(C(=O)O)cccc2o1)c1ccccc1 = group B
O=C(Nc1c(O)cccc1-c1nc2c(C(=O)O)cccc2o1)c1ccccn1 = group A
O=C(Nc1c(O)cccc1-c1nc2c(C(=O)O)cccc2o1)c1ccc(F)c(F)c1F = group C

Band for CCCCCCCCCCCCCCCCOP(=O)([O-])OCC[N+](C)(C)C ?
group B

Band for O=C(Nc1c(O)cccc1-c1nc2c(C(=O)O)cccc2o1)c1ncccc1O ?
group A

Band for O=C(Nc1c(O)cccc1-c1nc2c(C(=O)O)cccc2o1)c1cccnc1 ?
group C

Band for COc1cccc(-c2nc3c(C(=O)O)cccc3o2)c1NC(=O)c1cc2ccccc2[nH]1 ?
group C

Band for O=C(Nc1c(O)cccc1-c1nc2c(C(=O)O)cccc2o1)c1cccc(Cl)c1 ?
group B

Band for O=C(Nc1c(O)cccc1-c1nc2c(C(=O)O)cccc2o1)c1cc(-c2ccccc2)nc2ccccc12 ?
group B
